B1: LOC100129726 (parent)
chain: AKAADSPTRNDLESGLGHFSLRVH

variants of: B1; experiment: protein stability index of a GFP-peptide fusion (GPS, HEK-293T) (PSI 1-6); higher = more stable; conditions: c terminus: a fixed tail appended;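 further: lentivirally expressed fusions sorted by FACS into six bins by GFP to DsRed ratio, PSI derived from sequencing read proportions per bin multiplied by bin number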
protein stability index for assorted variants

# VARIANT NOTATION, protein stability index
rows = [
    ("V23N", 3.43),
    ("L12T", 2.91),
    ("L21A", 4.25),
    ("F19T", 4.66),
    ("G15E", 2.82),
    ("L21V", 3.84),
    ("D5Y", 2.3),
    ("L12F", 3.06),
    ("N10C", 2.13),
    ("N10V", 2.56),
    ("H18L", 2.38),
]
